Form field: melting point (one value per entry).
endpoint.label: melting point

1) COc1ccc(N/C(SC)=C(\C#N)C(N)=O)cc1O ... 160 to 164 °C
2) NP(N)(=O)NC(=O)c1ccc(F)cc1 ... 255 to 257 °C
3) O=c1ccn(-c2cccc(C(F)(F)F)c2)nc1-c1ccnn1CC1CC1 ... 155 to 157 °C
4) CC(Oc1ccc([N+](=O)[O-])cc1F)c1c(Cl)cccc1Cl (configuration not stated) ... 120 °C
5) O=Cc1ccccc1Oc1ccc(I)cc1 ... 84.5 to 86 °C
6) Cn1ncc2c1-c1cn[nH]c1CC2 ... 180 to 186 °C
7) CCc1cccc2c1S(=O)(=O)c1ccccc1O2 ... 101 to 103 °C
8) CN(SC(C)(C)C)C(=O)Nc1ccc(Cl)c(Cl)c1 ... 127 °C
9) CO[C@@H]1CN(Cc2ccccc2)C[C@H]1NC(=O)OC(C)(C)C ... 44 to 45 °C
10) Oc1ccc(C=C2c3ccccc3CCc3ccccc32)cc1O ... 138 °C
11) C=CS(=O)(=O)Nc1cccc(Nc2nc(N[C@H](C)C(C)(C)C)c3nc[nH]c3n2)c1 ... 133 to 136 °C
12) CC(C)CCCSC1c2ccccc2C(=O)N1c1ccc2ccc(Cl)nc2n1 (configuration not stated) ... 141 °C
13) CCOCc1nc2c(N)nc3ccccc3c2n1CCOCCNC(=O)Nc1ccccc1 ... 183 to 186 °C
14) CC(C)CCOc1c(-c2ccc(S(N)(=O)=O)cc2)cnn(-c2cccc(Cl)c2)c1=O ... 137 to 139 °C
15) CCCCn1c(=O)n(C)c(=O)c2nn(S(=O)(=O)CCCCl)cc21 ... 105 to 106 °C
16) CCCOc1c(C)cc(Cl)c2c(=O)c3ccccc3sc12 ... 101 to 103 °C
17) O=C(O)c1cccc(-c2nc(-c3ccc(Cl)cc3)cs2)c1 ... 265 to 266 °C
18) CCC1(CC)CN(C(C)(C)C)C(=O)C(CC)(CC)N1OC(C)c1ccccc1 (configuration not stated) ... 85 to 90 °C
19) Cc1nc2c(cc1C(=O)NC(=N)N)CCCCC2CS(=O)(=O)O (configuration not stated) ... 245 to 247 °C
20) CC(=O)Oc1c(C)c(C)c2c(c1C)CC(C)(C=O)O2 (configuration not stated) ... 78 to 79 °C
21) FC(F)(F)c1cc(Br)c2nc(N3CCN(c4ncccc4C(F)(F)F)CC3)[nH]c2c1 ... 196 °C
22) CC(=O)OCCCc1nc(-c2ccc(Cl)cc2)co1 ... 37 to 37.5 °C

###

endpoint.label: melting point

1) CC(C)CCN1C(=O)C(NC(=O)Nc2ccccc2)C(=O)N(CCN(C)C)c2ccccc21 (stereo unspecified) ... 159 to 161 °C
2) CCOC(COc1ccc(Cl)c2cccnc12)OCC ... 51 to 53 °C
3) COC(=O)c1ccccc1C=NC(C)(C(N)=O)C(C)C (stereo unspecified) ... 79 to 80.5 °C
4) O=C(Nc1ccc(C(F)(F)F)cc1)c1cc(-c2ccc(F)cc2F)ccc1O ... 227 to 228 °C
5) Nc1cccc2cc(C(=O)O)ccc12 ... 231 to 234 °C
6) Cc1ccc(-c2nsc3[nH]c4ccc(C)cc4c(=O)c23)cc1 ... 330 °C
7) Cc1ccc2cc(NC(=O)c3cccc(OCc4ccc(N)nc4)c3)ccc2n1 ... 189 to 192 °C
8) C[C@H]1[C@H](c2ccccc2)N(C)C(=O)N1C(=O)NC1CCCCC1 (relative stereo) ... 108 °C
9) CCC(O)c1cc([N+](=O)[O-])cc(Br)c1Cl (stereo unspecified) ... 110 to 113 °C
10) CCC(=O)c1cccc(S(N)(=O)=O)c1 ... 152 to 153 °C
11) CCC12CCC(=O)C=C1c1c(cc(OCC(=O)O)c(Cl)c1Cl)C2 (stereo unspecified) ... 237 to 238 °C
12) CCc1cccc2c3c([nH]c12)C(CC)(CC(C)=O)OCC3 (stereo unspecified) ... 154 to 155 °C
13) COc1ccc2cc(CNC(=O)c3oc4ccccc4c3C)ccc2c1Br ... 154 to 156 °C
14) CCn1c(=O)c2c(nc(/C=C/c3cc(OC)c(O)c(OC)c3)n2C)n(CC)c1=O ... 226 °C
15) CC(C)n1nc(-c2sc(NC(=O)c3cccc(F)c3)nc2-c2ccccc2)ccc1=O ... 183 to 184 °C
16) Clc1ccc(Nc2nncc3ccccc23)cc1 ... 211 °C
17) Cc1ccc(N)c(-c2nc(C(F)(F)F)cs2)c1 ... 100 to 103 °C
18) O=C(O)CCOC(c1ccccc1)(c1ccccc1)c1ccccc1 ... 159 to 161 °C
19) O=C(Nc1ccccc1C(=O)NCCc1ncc[nH]1)c1ccc(-c2ccccc2)cc1 ... 197 to 201 °C
20) CONC1=NC(=O)C(=Cc2cccc(-c3cc(F)c(O)c(C45CC6CC(CC(C6)C4)C5)c3)c2)S1 ... 286 to 288 °C
21) CCc1ccnc(C(=O)c2[nH]c3cc(Cl)ccc3c2CC(=O)O)c1Cl ... 158 °C
